experiment: AUC in rat at 1 mg/kg, po; format: ADME, organism-based; parameters: dose 1 mg/kg, route oral; settings: plasma
measurement-label: AUC (µM·h)
Please state the figure in µM·h; there is no need to write the unit.

Solved entries:
# structure-smiles, AUC, µM·h
records = [
    ("Cc1cc(C)cc(-c2[nH]c3sc(C(C)(C)C(=O)N4C5CCC4CC5)cc3c2CCN2CCC(CC(=O)N3CCOCC3)CC2)c1", 0.041),
    ("Cc1cc(C)cc(-c2[nH]c3sc(C(C)(C)C(=O)N4C5CCC4CC5)cc3c2C(=O)CN2CCC(C(=O)N3CCOCC3)CC2)c1", 0.36),
    ("Cc1cc(C)cc(-c2[nH]c3sc(C(C)(C)C(=O)N4C5CCC4CC5)cc3c2CCN2CCC(CNC(=O)N3CCOCC3)CC2)c1", 0.018),
    ("CCN(CC)CCOC1CCN(CCc2c(-c3cc(C)cc(C)c3)[nH]c3sc(C(C)(C)C(=O)N4C5CCC4CC5)cc23)CC1", 0.002),
]

Could you now consider this next compound?
Looking up Cc1cc(C)cc(-c2[nH]c3sc(C(C)(C)C(=O)N4C5CCC4CC5)cc3c2CCN2CCC(N3CCOCC3)CC2)c1 , I see its AUC listed as 0.006
